The measured values listed here are drawn from patent US12428427B2.

# target.of.assay: PDL1/PD1 (Homo sapiens)
# Sequence (Q9NZQ7 19-238 limits assumed): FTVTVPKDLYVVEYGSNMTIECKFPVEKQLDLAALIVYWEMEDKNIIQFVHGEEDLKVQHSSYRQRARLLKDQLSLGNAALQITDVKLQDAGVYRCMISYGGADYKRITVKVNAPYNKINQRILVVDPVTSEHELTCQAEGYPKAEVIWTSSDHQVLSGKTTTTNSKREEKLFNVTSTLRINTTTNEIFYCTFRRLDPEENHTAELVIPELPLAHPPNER
# experimental.protocol: PDL1/PD1 Binding Assay
# condition.label: PDL1-6×His 0.3 nM, PD1-Fc-Avi-Biotin 2.5 nM, Acceptor/Donor beads; read-out: PD-1/PD-L1 PPI IC50
pIC50: −log10 of the molar value.
pIC50 overview

For COc1nc(-c2cccc(-c3cccc(NC(=O)c4ccnn(C)c4=O)c3C)c2Cl)ccc1CN1CC[C@@H](O)C1 , what is its reported pIC50? ≥ 8.00

For COc1nc(-c2cccc(-c3cccc(NC(=O)c4ccnn(C)c4=O)c3C)c2C)ccc1CN[C@@H]1CCOC[C@H]1O , what is its reported pIC50? ≥ 8.00

For COc1nc(-c2cccc(-c3cccc(NC(=O)c4ccnn(C)c4=O)c3Cl)c2Cl)ccc1CN1CC(O)C1 , what is its reported pIC50? ≥ 8.00

###

# target.of.assay: PDL1/PD1 (Homo sapiens)
# experimental.protocol: PDL1/PD1 Binding Assay
# condition.label: PDL1-6×His 0.3 nM, PD1-Fc-Avi-Biotin 2.5 nM, Acceptor/Donor beads; read-out: PD-1/PD-L1 PPI IC50
pIC50: −log10 of the molar value.
readout.kind: pIC50

See these solved cases before continuing.
COc1nc(-c2cccc(-c3cccc(NC(=O)c4ccnn(C)c4=O)c3Cl)c2Cl)ccc1CN1CC(F)(C(=O)O)C1; ≥ 8.00
CCOC(=O)[C@@H]1CCN(Cc2ccc(-c3cccc(-c4cccc(NC(=O)c5ccnn(C)c5=O)c4Cl)c3Cl)nc2OC)C1; 7.00 to 8.00
COc1nc(-c2cccc(-c3cccc(NC(=O)c4ccnn(C)c4=O)c3Cl)c2Cl)ccc1CNC[C@@H]1CCC(=O)N1; ≥ 8.00
COc1nc(-c2cccc(-c3cccc(NC(=O)c4ccnn(C)c4=O)c3C)c2Cl)ccc1CN1CC[C@H](C(=O)O)C1; ≥ 8.00
COc1nc(-c2cccc(-c3cccc(NC(=O)c4ccnn(C)c4=O)c3Cl)c2Cl)c(F)cc1CN1CC(C(=O)O)C1; ≥ 8.00
COC(=O)C1(F)CN(Cc2ccc(-c3cccc(-c4cccc(NC(=O)c5ccnn(C)c5=O)c4C)c3Cl)nc2OC)C1; ≥ 8.00

For COc1nc(-c2cccc(-c3cccc(NC(=O)c4ccnn(C)c4=O)c3Cl)c2Cl)ccc1CN1C[C@H](C(=O)O)C(C)(C)C1 , what is its reported pIC50? ≥ 8.00

For CCOC(=O)[C@H]1CCN(Cc2ccc(-c3cccc(-c4cccc(NC(=O)c5ccnn(C)c5=O)c4Cl)c3Cl)nc2OC)C1 , what is its reported pIC50? 7.00 to 8.00

###

# target.of.assay: PD-1/PD-L1 interaction (Homo sapiens)
# Construct: Jurkat cells (PD-1 plus NFAT-luciferase)
# Sequence (Q9NZQ7 19-290): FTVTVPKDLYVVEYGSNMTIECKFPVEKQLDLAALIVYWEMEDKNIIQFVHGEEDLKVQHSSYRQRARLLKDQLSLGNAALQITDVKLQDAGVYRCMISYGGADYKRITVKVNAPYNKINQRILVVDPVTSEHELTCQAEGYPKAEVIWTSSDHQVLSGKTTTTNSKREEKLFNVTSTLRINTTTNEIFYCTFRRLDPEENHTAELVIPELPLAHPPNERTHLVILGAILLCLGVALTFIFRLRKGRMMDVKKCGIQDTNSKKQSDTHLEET
# experimental.protocol: PD-1/PD-L1 NFAT Reporter Assay
# condition.label: co-culture of PD-L1 expressing CHO cells and PD-1 overexpressing Jurkat cells, 6 hrs, NFAT luciferase
readout.kind: EC50

See these solved cases before continuing.
CCOC(=O)C1CN(Cc2cc(F)c(-c3cccc(-c4cccc(NC(=O)c5ccnn(C)c5=O)c4Cl)c3Cl)nc2OC)C1; 10 to 100 nM
COc1nc(-c2cccc(-c3cccc(NC(=O)c4ccnn(C)c4=O)c3Cl)c2Cl)cnc1CN1CC[C@H](O)C1; ≤ 10 nM
COc1nc(-c2cccc(-c3cccc(NC(=O)c4ccnn(C)c4=O)c3Cl)c2Cl)ccc1CNC1CCC[C@@H]1C(=O)O (stereo partly shown); 10 to 100 nM

For COc1nc(-c2cccc(-c3cccc(NC(=O)c4ccnn(C)c4=O)c3Cl)c2Cl)ccc1CN1CCO[C@H](C(=O)O)C1 , what is its reported EC50? 10 to 100 nM
